Target: Gastrin/cholecystokinin type B receptor (Mus musculus)
Test: Position of half maximal response of the agonist curve at Cholecystokinin type B receptor in the in vitro mouse stomach assay
Assay type: functional, tissue-based
Residues, ends and D or L forms follow the SMILES beside them. *: point of attachment. Boc = CC(C)(C)OC(=O)*
MEASUREMENT TYPE: pA50
Keep it simple and answer with nothing but the number.

Which value of pA50 has been reported for CC(C)C[C@H](NC(=O)[C@H](C)NC(=O)OC(C)(C)C)C(=O)N[C@@H](CC(=O)O)C(=O)N[C@@H](Cc1ccccc1)C(N)=O (Boc-ALDF-NH2) in the records? 6

Moving on to C[C@H](NC(=O)[C@H](Cc1c[nH]c2ccccc12)NC(=O)OC(C)(C)C)C(=O)N[C@@H](CC(=O)O)C(=O)N[C@@H](Cc1ccccc1)C(N)=O (Boc-WADF-NH2) 7

Moving on to CC(C)C[C@H](NC(=O)[C@H](Cc1c[nH]c2ccccc12)NC(=O)OC(C)(C)C)C(=O)N[C@@H](CC(=O)O)C(=O)N[C@@H](Cc1ccccc1)C(N)=O (Boc-WLDF-NH2) 8.9

Moving on to CC(C)C[C@H](NC(=O)[C@H](Cc1c[nH]c2ccccc12)NC(=O)OC(C)(C)C)C(=O)N[C@@H](CC(=O)O)C(=O)N[C@@H](C)C(N)=O (Boc-WLDA-NH2) 5

* * *

Molecular target: Gastrin/cholecystokinin type B receptor (Mus musculus) (UniProt P56481)
Sequence (P56481 whole entry): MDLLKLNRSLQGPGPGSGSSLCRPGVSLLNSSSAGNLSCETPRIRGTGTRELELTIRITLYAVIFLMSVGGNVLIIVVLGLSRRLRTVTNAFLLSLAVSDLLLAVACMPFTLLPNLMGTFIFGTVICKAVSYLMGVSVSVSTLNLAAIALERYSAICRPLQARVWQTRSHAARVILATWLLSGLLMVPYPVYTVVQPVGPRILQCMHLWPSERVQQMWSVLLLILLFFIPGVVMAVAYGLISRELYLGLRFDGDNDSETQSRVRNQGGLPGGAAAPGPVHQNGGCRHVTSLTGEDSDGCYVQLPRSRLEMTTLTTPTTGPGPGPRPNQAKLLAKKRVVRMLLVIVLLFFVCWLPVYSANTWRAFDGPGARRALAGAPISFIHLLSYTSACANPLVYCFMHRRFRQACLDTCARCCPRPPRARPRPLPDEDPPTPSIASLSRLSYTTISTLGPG
Assay: Percent maximal response at Cholecystokinin type B receptor relative to a pentagastrin control
Type: functional
Residues, ends and D or L forms follow the SMILES beside them. *: point of attachment. Boc = CC(C)(C)OC(=O)*
For each record, write down the corresponding Response.
API: value field is a number in %; no unit string.

Which value of Response has been reported for CNC(=O)C(Cc1ccccc1)NC(=O)[C@@H](CC(=O)O)NC(=O)[C@@H](Cc1ccc2ccccc2c1)NC(=O)[C@H](Cc1c[nH]c2ccccc12)NC(=O)OC(C)(C)C (stereo partly drawn) in the records? 55

Moving on to CC(C)(C)OC(=O)N[C@@H](Cc1c[nH]c2ccccc12)C(=O)N[C@H](Cc1ccc2ccccc2c1)C(=O)N[C@H](CC(=O)O)C(=O)N[C@@H](Cc1ccc(Cl)cc1)C(N)=O 74

Moving on to C[C@H](NC(=O)[C@H](Cc1c[nH]c2ccccc12)NC(=O)OC(C)(C)C)C(=O)N[C@@H](CC(=O)O)C(=O)N[C@@H](Cc1ccccc1)C(N)=O (Boc-WADF-NH2) 68

Moving on to CN(C)C(=O)C(Cc1ccccc1)NC(=O)[C@@H](CC(=O)O)NC(=O)[C@@H](Cc1ccc2ccccc2c1)NC(=O)[C@H](Cc1c[nH]c2ccccc12)NC(=O)OC(C)(C)C (stereo partly drawn) 55

Moving on to CC(C)C[C@H](NC(=O)[C@H](Cc1c[nH]c2ccccc12)NC(=O)OC(C)(C)C)C(=O)N[C@@H](CC(=O)O)C(=O)N[C@@H](Cc1ccccc1)C(N)=O (Boc-WLDF-NH2) 100

Moving on to CC(C)(C)OC(=O)N[C@@H](Cc1c[nH]c2ccccc12)C(=O)N[C@H](Cc1ccc2ccccc2c1)C(=O)N[C@H](CC(=O)O)C(=O)NCCc1ccc(Cl)cc1 60

Moving on to CC(C)(C)OC(=O)N[C@@H](Cc1c[nH]c2ccccc12)C(=O)N[C@H](Cc1ccc2ccccc2c1)C(=O)N[C@H](CC(=O)O)C(=O)NCCc1ccccc1 20
